run description: in vitro
Format: cell-based
test context: human
reported property: cytotoxicity at 0.78 μg/ml (%)
Enter your answer as a number in %; do not include the unit.

Sample C=C(C)[C@@H](CC=C(C)C)C[C@@]12C[C@@H](CC=C(C)C)C(C)(C)[C@@](CC=C(C)C)(C(=O)C(C(=O)c3ccc(O)c(O)c3)=C1O)C2=O — what was its cytotoxicity at 0.78 μg/ml?
-3.81

* * *

run description: in vitro
Format: cell-based
test context: human
reported property: cytotoxicity at 25 μg/ml (%)
Enter your answer as a number in %; do not include the unit.

Sample C=C(C)[C@@H](CC=C(C)C)C[C@@]12C[C@@H](CC=C(C)C)C(C)(C)[C@@](CC=C(C)C)(C(=O)C(C(=O)c3ccc(O)c(O)c3)=C1O)C2=O — what was its cytotoxicity at 25 μg/ml?
60.9
